B1: PCDHGA10 (parent)
chain: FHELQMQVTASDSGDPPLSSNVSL

variants of: B1; assay: protein stability index of a GFP-peptide fusion (GPS, HEK-293T) (PSI 1-6); higher = more stable; details: c terminus: a fixed tail appended;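 note: lentivirally expressed fusions sorted by FACS into six bins by GFP to DsRed ratio, PSI derived from sequencing read proportions per bin multiplied by bin number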
# label = true if protein stability index >= 2 else false

Query block: Given the entry FHELQLQVTASDSGDPPLSSNVSL , answer whether its protein stability index meets or surpasses 2.
Result block: true

Query block: protein stability index >= 2 for FHELQMQVTAMDSGDPPLSSNVSL ?
Result block: false

Query block: Could you tell me if the measured protein stability index of FHELQNQVTASDSGDPPLSSNVSL reaches 2 or more?
Result block: true

Query block: State whether the measured protein stability index reaches 2, counting equality as reaching it, for FHELQMQVTASDSGDPPLSLNVSL
Result block: true

Query block: hey, is protein stability index for this one >= 2? FHCLQMQVTASDSGDPPLSSNVSL
Result block: true

Query block: Decide: protein stability index of FHELQMQVTASDSGDPPLSSYVSL >= 2?
Result block: false

Query block: State whether the measured protein stability index reaches 2, counting equality as reaching it, for FHELQMQVTASDSGDPPLSSNVAL
Result block: true
